Values from patent US20260069689A1

measurement-target: T1, SARS-CoV2 Spike ecto foldon Trimer expressed with a C-terminal myc-myc-hexahistidine (SARS-CoV-2, UniProt P0DTC2 14-1213)
T1 construct: extracellular domain
procedure-text: SPR Biacore, mAb captured by anti-hFc, 37C
pKd: −log10 of the molar value.

| binder | pKd |
| --- | --- |
| mAb15157 (antibody, V domains shown) VH: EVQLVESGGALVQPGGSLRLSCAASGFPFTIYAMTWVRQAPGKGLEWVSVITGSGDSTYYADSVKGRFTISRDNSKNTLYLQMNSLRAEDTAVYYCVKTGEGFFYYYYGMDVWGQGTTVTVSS VL: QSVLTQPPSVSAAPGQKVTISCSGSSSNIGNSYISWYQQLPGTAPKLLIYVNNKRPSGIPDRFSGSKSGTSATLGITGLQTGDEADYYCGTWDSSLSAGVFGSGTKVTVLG | 9.85 |
| mAb14280 (antibody, V domains shown) VH: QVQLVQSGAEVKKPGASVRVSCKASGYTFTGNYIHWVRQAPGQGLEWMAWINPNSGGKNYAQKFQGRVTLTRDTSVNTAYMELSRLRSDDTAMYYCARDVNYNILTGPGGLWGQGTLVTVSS VL: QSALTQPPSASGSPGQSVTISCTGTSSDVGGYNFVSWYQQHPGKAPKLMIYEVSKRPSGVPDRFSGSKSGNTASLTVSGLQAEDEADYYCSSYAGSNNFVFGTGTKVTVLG | 10.54 |
| mAb15151 (antibody, V domains shown) VH: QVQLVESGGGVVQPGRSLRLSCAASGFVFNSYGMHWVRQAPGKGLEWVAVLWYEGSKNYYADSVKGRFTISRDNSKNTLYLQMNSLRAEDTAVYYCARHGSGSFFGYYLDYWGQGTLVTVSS VL: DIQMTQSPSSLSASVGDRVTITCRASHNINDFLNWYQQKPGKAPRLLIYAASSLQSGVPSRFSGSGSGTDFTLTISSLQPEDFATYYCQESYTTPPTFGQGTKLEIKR | 9.89 |
